test: Apparent oral clearance in Sprague-Dawley rat at 5 mg/kg, po; format: ADME, organism-based; design: dose 5 mg/kg, route oral; details: in vivo
metric: CL/F (mL/min/kg)
Return type: number; implicit unit mL/min/kg.

Ask: Given the compound NC(=O)c1sc(-c2ccnc(N)n2)nc1-c1ccc(Cl)cc1Cl , write its reported CL/F.
Result: 1050

----------
assay: Inhibition of CK1gamma (unknown origin) by TR-FRET assay; parameters: species or system Homo sapiens
Measured IC50 by item
Return type: number; implicit unit nM.

> print(dat)
                             chemicalstring  reportedvalue
1  COc1ccc(-c2nc(-c3ccnc(N)n3)sc2C(N)=O)c(Cl)c1           1900

Now turn to the next compound.
Ask: Given the compound NC(=O)c1sc(-c2ccnc(N)n2)nc1-c1ccc(Cl)cc1Cl , write its reported IC50.
Result: 760
